Biological target: LTA4H (Homo sapiens, UniProt P09960)
Sequence (P09960 1-611): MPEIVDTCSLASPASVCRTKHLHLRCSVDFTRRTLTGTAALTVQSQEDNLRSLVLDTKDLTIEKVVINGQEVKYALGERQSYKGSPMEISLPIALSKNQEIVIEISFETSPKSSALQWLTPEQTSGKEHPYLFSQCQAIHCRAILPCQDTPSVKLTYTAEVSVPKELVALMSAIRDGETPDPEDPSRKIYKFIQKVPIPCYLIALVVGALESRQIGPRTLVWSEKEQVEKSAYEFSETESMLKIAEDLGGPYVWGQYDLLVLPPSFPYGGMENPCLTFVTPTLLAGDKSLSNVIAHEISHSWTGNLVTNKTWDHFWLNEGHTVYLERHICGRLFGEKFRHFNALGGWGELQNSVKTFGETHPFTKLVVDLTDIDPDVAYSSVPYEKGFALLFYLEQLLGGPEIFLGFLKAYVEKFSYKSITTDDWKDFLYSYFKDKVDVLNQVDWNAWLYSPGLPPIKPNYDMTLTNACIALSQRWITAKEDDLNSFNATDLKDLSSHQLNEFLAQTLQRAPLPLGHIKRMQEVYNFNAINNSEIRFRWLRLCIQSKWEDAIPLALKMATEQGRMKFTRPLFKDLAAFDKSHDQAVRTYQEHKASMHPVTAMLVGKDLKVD
Assay: LTA4H aminopeptidase assay with surrogate substrate Arg-AMC
Assay type: biochemical
Set-up: Full-length LTA4H containing a N-terminal (His)6-tag; (His)6-tag (N, cleaved yes); (Gly3-Ser)3 spacer (N, cleaved yes); made in house; host or cells: E. coli BL21 (DE3) star
QUANTITY: pIC50
Please keep in mind that pIC50 is minus log10 of the molar concentration; only the number is needed.

Entry c1ccc(Oc2ccc(-c3c[nH]cn3)cc2)cc1 — recorded pIC50 = 7.19

Entry source: paper PMC5648829
